Recorded IC50 for molecules tested on Cytochrome P450 2A6 (Homo sapiens), drawn from a number of studies.

MOLECULE: CC(C)C[C@H]1NC(=O)[C@@H](C)N(C)C(=O)[C@H](C2CC2)NC[C@@H](C)Oc2ccccc2CC[C@H](C)NC1=O
VALUE: > 100 µM

MOLECULE: CC(C)=CCC/C(C)=C\Cn1ccnc1
VALUE: 6 µM

MOLECULE: CC(O)c1ccc(CCOc2ccc(CC3SC(=O)NC3=O)cc2)nc1 (racemic)
VALUE: > 100 µM

MOLECULE: CCCCCC(Cc1ccccc1)C(C)=O (stereo not drawn)
VALUE: 148 µM

MOLECULE: CCc1nc(COC(=O)c2cccn2Cc2ccncc2)cs1
VALUE: 55.6 µM

Okay, next one:
Prompt: Please tell me: IC50 of `c1nc2c(o1)CCCCCCCCCC2` , system Cytochrome P450 2A6 (Homo sapiens)?
Response: 53 µM
